- System tested: Recombinant human aldo-keto reductase family 1 member C2 (AKR1C2) protein (Homo sapiens)
- Construct: made in house; host or cells: Sf-9 insect cells (baculovirus)
- Sequence (P52895 whole entry): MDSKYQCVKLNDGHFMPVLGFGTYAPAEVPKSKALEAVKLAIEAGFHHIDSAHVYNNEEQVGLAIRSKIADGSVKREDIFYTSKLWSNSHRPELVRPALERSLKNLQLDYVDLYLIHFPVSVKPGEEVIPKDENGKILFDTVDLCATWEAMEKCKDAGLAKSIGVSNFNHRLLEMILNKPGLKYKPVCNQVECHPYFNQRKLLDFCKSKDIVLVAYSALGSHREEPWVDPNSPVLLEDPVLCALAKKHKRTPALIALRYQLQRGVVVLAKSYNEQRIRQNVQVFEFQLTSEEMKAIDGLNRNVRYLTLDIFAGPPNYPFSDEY
- Assay summary: Inhibition of the aldo-keto reductase family 1 member C2, 3H-dihydrotestosterone conversion
- Assay type: biochemical
- Condition context: inhibitor at 10 μM
Measured endpoint: inhibition at 10 µM (%)

N#CC(=C1CCN(C(=O)N2CCc3cc(F)ccc32)CC1)c1ccc(F)cc1: 12
COCC1CCN(C(=O)N2CCC(=C(C#N)c3cccc(Cl)c3)CC2)CC1: 14
N#CC(=C1CCN(C(=O)N2CCC(CCO)CC2)CC1)c1cccc(Cl)c1: 21
N#CC(=C1CCN(C(=O)N2C[C@@H]3CC[C@@H]2C3)CC1)c1ccc(F)cc1F: 13
COCC1CCN(C(=O)N2CCC(=C(C#N)c3ccc(F)cc3)CC2)CC1: 5
N#CC(=C1CCN(C(=O)N2CCc3nocc3C2)CC1)c1ccc(F)cn1: 6

A: N#CC(=C1CCN(C(=O)N2CCc3sccc3C2)CC1)c1ccc(F)cc1F
B: N#CC(=C1CCN(C(=O)N2CCC(CO)CC2)CC1)c1ccc(Cl)cc1
C: N#CC(=C1CCN(C(=O)N2CCC(O)CC2)CC1)c1cccc2cn[nH]c12
Task item: Put the compounds in ascending order of inhibition at 10 µM. # list labels per requested ordering
Reply: C, B, A
